B1: CPEB3 Ribozyme (parent)
chain: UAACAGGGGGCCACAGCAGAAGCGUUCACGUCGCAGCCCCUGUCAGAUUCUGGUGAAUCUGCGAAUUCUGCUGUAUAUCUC

Variants of: B1
protocol-description: self-cleavage, relative activity (ratio to wild type); higher = more cleavage; in vitro, sequencing
Parameter threshold = 0.3. Response is true when self-cleavage meets or exceeds it, else false.

These recorded examples may help you get a feel for the data.
mutant-name | group
C4A U58A | true
G6C C27U | true
U58A U80A | true
C38U U60G | false
A18U U26G | false
A47G A56G | true
C32U U43C | false
C17U U78C | true

Input: Test whether the variant A64U U74C records self-cleavage of 0.3 or higher.
Output: true

Input: Test whether the variant A28U A77U records self-cleavage of 0.3 or higher.
Output: true

Input: Test whether the variant U31A U43C records self-cleavage of 0.3 or higher.
Output: true

Input: Test whether the variant C4U U54C records self-cleavage of 0.3 or higher.
Output: true

Input: Test whether the variant U60G U69C records self-cleavage of 0.3 or higher.
Output: false
